Measured OX2R agonist activity (3 μM, %) values are reported for all entries that follow.
- system-name: human OX2 receptor (Homo sapiens, UniProt O43614)
- Construct: expressed in transfected cells
- Sequence (O43614 1-444): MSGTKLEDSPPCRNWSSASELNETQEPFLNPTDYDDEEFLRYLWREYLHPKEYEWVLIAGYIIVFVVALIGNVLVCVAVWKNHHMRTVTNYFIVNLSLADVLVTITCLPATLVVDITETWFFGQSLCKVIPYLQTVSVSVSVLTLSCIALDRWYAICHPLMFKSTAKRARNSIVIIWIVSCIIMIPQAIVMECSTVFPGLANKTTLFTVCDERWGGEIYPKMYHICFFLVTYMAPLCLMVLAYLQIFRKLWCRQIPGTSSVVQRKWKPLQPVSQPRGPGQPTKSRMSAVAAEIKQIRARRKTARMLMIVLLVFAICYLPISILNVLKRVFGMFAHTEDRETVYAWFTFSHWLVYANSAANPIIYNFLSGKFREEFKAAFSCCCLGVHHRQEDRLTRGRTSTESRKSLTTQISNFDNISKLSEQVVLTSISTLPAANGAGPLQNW
- assay-method-text: Measurement of orexin type 2 receptor agonist activity (calcium fluorescence, Fluo-4 AM, FDSS)
- Type: cell-based
- setup-conditions: compound at 3 μM; CHO cells forcibly expressing human OX2 receptor; DMSO = 0%, 10 nM orexin A (human) = 100%
Use % as the unit, but write only the number.

| compound | readout-unit | OX2R agonist activity (3 μM, %) |
| --- | --- | --- |
| CS(=O)(=O)N[C@@H]1CN(C2=NOC(c3ccc(F)cc3-c3c(F)cccc3F)C2)C[C@@H]1F (stereo partly shown) | % | 101 |
| CS(=O)(=O)N[C@@H]1CN(C2=NOC(CF)(c3ncc(F)cc3-c3c(F)cc(F)cc3F)C2)CC1(F)F (stereo partly shown) | % | 98 |

Query the reported OX2R agonist activity (3 μM, %) for human OX2 receptor (Homo sapiens, UniProt O43614); item: Cc1cnc(C2(CF)CC(N3C[C@@H](NS(C)(=O)=O)C(F)(F)C3)=NO2)c(-c2c(F)cccc2F)c1 (stereo partly shown)
105

Also, CS(=O)(=O)N[C@@H]1CN(C2=NOC(c3ncc(Cl)cc3-c3c(F)cccc3F)C2)CC1(F)F (stereo partly shown) please.
95

Also, Cc1cnc([C@@H]2CC(N3C[C@@H](NS(C)(=O)=O)C(F)(F)C3)=NO2)c(-c2c(F)ccc(F)c2F)c1 please.
92

Also, Cc1cnc([C@@H]2CC(N3C[C@H](F)[C@H](NS(=O)(=O)CF)C3)=NO2)c(-c2c(F)cccc2F)c1 please.
104

Also, Cc1cnc(C2CC([C@H]3CC[C@H](NS(C)(=O)=O)C3)=NO2)c(-c2c(F)cc(F)cc2F)c1 (stereo partly shown) please.
88

---

Measured OX2R agonist activity (3 μM, %) values are reported for all entries that follow.
- system-name: human OX2 receptor (Homo sapiens)
- Construct: expressed in transfected cells
- assay-method-text: Measurement of orexin type 2 receptor agonist activity (calcium fluorescence, Fluo-4 AM, FDSS)
- Type: cell-based
- setup-conditions: compound at 3 μM; CHO cells forcibly expressing human OX2 receptor; DMSO = 0%, 10 nM orexin A (human) = 100%
Use % as the unit, but write only the number.

I would be grateful if you could share the reported OX2R agonist activity (3 μM, %) for CN(C)S(=O)(=O)N[C@H]1CCN(C2=NOC(c3ncccc3-c3c(F)cc(F)cc3F)C2)C1 (stereo partly drawn) .
92

Also, Cc1cnc([C@@H]2CC(N3CC(F)(F)C(C)(NS(C)(=O)=O)C3)=NO2)c(-c2c(F)cc(F)cc2F)c1 (stereo partly drawn) please.
100

Also, Cc1cnc([C@@H]2CC(N3CC[C@H](NS(=O)(=O)C(C)F)C3)=NO2)c(-c2c(F)cccc2F)c1 (stereo partly drawn) please.
101

Also, CS(=O)(=O)N[C@@H]1CN(C2=NOC(c3ncc(Cl)cc3-c3c(F)cccc3F)C2)C[C@@H]1F (stereo partly drawn) [Example 80] please.
97

Also, CS(=O)(=O)N[C@@H]1CN(C2=NOC(c3c(F)cccc3-c3c(F)cccc3F)C2)CC1(F)F (stereo partly drawn) please.
104

Also, O=S(=O)(CF)N[C@@H]1CN(C2=NOC(c3c(F)cc(F)cc3-c3c(F)cccc3F)C2)CC1(F)F (stereo partly drawn) please.
98

Also, Cc1cnc([C@@H]2CC(N3C[C@@H](F)[C@H](NS(=O)(=O)CF)C3)=NO2)c(-c2c(F)cccc2F)c1 please.
97

Also, Cc1cnc([C@@H]2CC(N3C[C@H](F)[C@H](NS(=O)(=O)C(F)F)C3)=NO2)c(-c2c(F)cccc2F)c1 please.
100

Also, CS(=O)(=O)N[C@@H]1CN(C2=NOC(c3ncc(F)cc3-c3c(F)cccc3F)(C(F)F)C2)CC1(F)F (stereo partly drawn) please.
98
